- Test system: Crude diglycosidase
- Assay method text: Examination of temperature in the conversion into isoflavone aglycons by diglycosidase using soybean materials
- Type: biochemical, Penicillium multicolor IAM7153
- Design: concentration or dose not given beside the values
- Measurement context: 80° C., heat treatment of enzyme no, reaction time 6 h
Endpoint name: Decomposition efficiency of daidzin family in defatted soybean (%)
# unit: % | format: bare number

Find the recorded Decomposition efficiency of daidzin family in defatted soybean belonging to O=c1c(-c2ccc(O)cc2)coc2cc(O[C@@H]3O[C@H](CO)[C@@H](O)[C@H](O)[C@H]3O)ccc12 [daidzin] and report it.
30.4

Find the recorded Decomposition efficiency of daidzin family in defatted soybean belonging to O=C(O)CC(=O)OC[C@H]1O[C@@H](Oc2ccc3c(=O)c(-c4ccc(O)cc4)coc3c2)[C@H](O)[C@@H](O)[C@@H]1O [malonyldaidzin, 6″-O-malonyldaidzin] and report it.
17.8

Find the recorded Decomposition efficiency of daidzin family in defatted soybean belonging to O=c1c(-c2ccc(O)cc2)coc2cc(O)ccc12 [daidzein] and report it.
51.7

###

For each of the compounds below, state its Decomposition efficiency of daidzin family in defatted soybean.
- Test system: Crude diglycosidase
- Assay method text: Examination of temperature in the conversion into isoflavone aglycons by diglycosidase using soybean materials
- Assay type: biochemical, Penicillium multicolor IAM7153
- Set-up: concentration or dose not given beside the values
- Measurement context: 45° C., heat treatment of enzyme no, reaction time 6 h
# unit: % | format: bare number

Find the recorded Decomposition efficiency of daidzin family in defatted soybean belonging to O=C(O)CC(=O)OC[C@H]1O[C@@H](Oc2ccc3c(=O)c(-c4ccc(O)cc4)coc3c2)[C@H](O)[C@@H](O)[C@@H]1O and report it.
41.7

Find the recorded Decomposition efficiency of daidzin family in defatted soybean belonging to O=c1c(-c2ccc(O)cc2)coc2cc(O)ccc12 and report it.
58.3

###

For each of the molecules below, state its Decomposition efficiency of daidzin family in defatted soybean.
- Tested on: Crude diglycosidase
- Assay method text: Examination of temperature in the conversion into isoflavone aglycons by diglycosidase using soybean materials
- Assay type: biochemical, Penicillium multicolor IAM7153
- Set-up: concentration or dose not given beside the values
- Measurement context: 65° C., heat treatment of enzyme yes, reaction time 6 h
# unit: % | format: bare number

Find the recorded Decomposition efficiency of daidzin family in defatted soybean belonging to O=c1c(-c2ccc(O)cc2)coc2cc(O[C@@H]3O[C@H](CO)[C@@H](O)[C@H](O)[C@H]3O)ccc12 and report it.
32.8

Find the recorded Decomposition efficiency of daidzin family in defatted soybean belonging to O=C(O)CC(=O)OC[C@H]1O[C@@H](Oc2ccc3c(=O)c(-c4ccc(O)cc4)coc3c2)[C@H](O)[C@@H](O)[C@@H]1O and report it.
35.2

Find the recorded Decomposition efficiency of daidzin family in defatted soybean belonging to O=c1c(-c2ccc(O)cc2)coc2cc(O)ccc12 and report it.
32.0

###

- Tested on: Crude diglycosidase
- Assay method text: Examination of temperature in the conversion into isoflavone aglycons by diglycosidase using soybean materials
- Format: biochemical, Penicillium multicolor IAM7153
- Set-up: concentration or dose not given beside the values
- Measurement context: 45 °C; heat treatment of enzyme: no; 0 h
For each of the compounds below, state its Decomposition efficiency of daidzin family in soymilk.
# unit: % | format: bare number

Item O=c1c(-c2ccc(O)cc2)coc2cc(O[C@@H]3O[C@H](CO)[C@@H](O)[C@H](O)[C@H]3O)ccc12 [daidzin] with Crude diglycosidase - Decomposition efficiency of daidzin family in soymilk?
33.9

Item O=C(O)CC(=O)OC[C@H]1O[C@@H](Oc2ccc3c(=O)c(-c4ccc(O)cc4)coc3c2)[C@H](O)[C@@H](O)[C@@H]1O [malonyldaidzin, 6″-O-malonyldaidzin] with Crude diglycosidase - Decomposition efficiency of daidzin family in soymilk?
57.2

Item O=c1c(-c2ccc(O)cc2)coc2cc(O)ccc12 [daidzein] with Crude diglycosidase - Decomposition efficiency of daidzin family in soymilk?
8.9

Values were extracted from patent US7118895B2.
